test details: Apparent permeability from apical to basolateral side in pig LLC-PK1 cells
Format: ADME, cell-based, Sus scrofa
outcome measure: Papp A→B (×10⁻⁶ cm/s)
State the answer as a number, implicitly in ×10⁻⁶ cm/s.

smi=CC(C)(O)c1ccnc(-c2cccc3cc([C@H](NS(=O)(=O)C4CC4)c4nc(N)c(F)cc4Cl)sc23)c1 recorded_measurement=7.8
smi=CC(C)(O)c1ccnc(-c2cccc3cc([C@H](NS(=O)(=O)C4CC4)c4nc(N)ncc4Cl)sc23)c1 recorded_measurement=19
smi=CC(C)(O)c1ccnc(-c2cccc3cc([C@H](NS(=O)(=O)C4CC4)c4c(F)cccc4Cl)sc23)c1 recorded_measurement=9.5
smi=C[C@](O)(c1ccnc(-c2cccc3cc([C@H](NS(=O)(=O)C4CC4)c4ccccc4Cl)sc23)c1)C(F)(F)F recorded_measurement=2.4
smi=CC(C)(O)c1ccnc(-c2cccc3cc([C@H](NS(=O)(=O)C4CC4)c4c(Cl)cnc(N)c4F)sc23)c1 recorded_measurement=16
smi=CC(C)(O)c1ccnc(-c2cccc3cc([C@H](NS(=O)(=O)C4CC4)c4cc(N)ncc4Cl)sc23)c1 recorded_measurement=19

## Task Find the recorded Papp A→B belonging to CC(C)(O)c1ccnc(-c2cccc3cc([C@H](NS(=O)(=O)C4CC4)c4nc(N)ccc4Cl)sc23)c1 and report it.
## Result 11

## Task // query: CC(C)(O)c1ccnc(-c2cccc3cc([C@H](NS(=O)(=O)C4CC4)c4ccccc4Cl)sc23)c1
## Result 7.5
